- Test system: U2OS
- ASSAY PROTOCOL: Multiplex assay against U2OS
- Type: toxicity, cell-based
- COND: human, 24 h, 1 µM, compound concentration 1 uM, replicate 2
Give Population Mitotic Cells (%) for every item shown.
# output: bare number, implied unit %

Task item: Give measured Population Mitotic Cells (%) for COc1ccc2c(c1)C(C(=O)N(Cc1ccc(N(C)C)cc1)c1ccc(C(C)C)cc1)CCC2.Cl (centres undefined) (U2OS).
Reply: 0

Task item: Give measured Population Mitotic Cells (%) for "Cc1ccc(F)cc1C(=O)Nc1ccc(C(=O)N2Cc3cccn3Cc3ccccc32)c(Cl)c1" (U2OS).
Reply: 42

Task item: Give measured Population Mitotic Cells (%) for "CCCC(CCC)C(=O)O" (U2OS).
Reply: 0

Task item: Give measured Population Mitotic Cells (%) for "Oc1c(CN2CCN(c3ccccn3)CC2)cc(Cl)c2cccnc12" (U2OS).
Reply: 0

====

- Test system: Fibroblast
- ASSAY PROTOCOL: Multiplex assay against human fibroblast
- Format: toxicity, cell-based
- COND: 48 h, 1 µM, compound concentration 1 uM, replicate 2
Values of Population Apoptotic (%) greater than or equal to 50% map to True; values below map to False.

Task item: # bool: Population Apoptotic (%) of "COc1c(C)cc(NC(=O)c2nn(Cc3ccc(F)cc3)c3c2CN(C(=O)c2ccc[nH]2)C[C@]3(C)C(N)=O)cc1C" >= 50%
Reply: True

Task item: # bool: Population Apoptotic (%) of "CC(C)(C)c1ccc(S(=O)(=O)Nc2ccc(Cl)cc2C(=O)c2cc[n+]([O-])cc2)cc1" >= 50%
Reply: True

Task item: # bool: Population Apoptotic (%) of "CN1CCN(c2nc3cc(C(F)(F)F)ccc3n3cccc23)CC1.O=C(O)/C=C\C(=O)O.O=C(O)/C=C\C(=O)O" >= 50%
Reply: False

Task item: # bool: Population Apoptotic (%) of "CN(C)c1ccnc2sc3c(=O)n(N4CCCCCC4)cnc3c12" >= 50%
Reply: False

====

- Tested on: U2OS
- ASSAY PROTOCOL: Multiplex assay against U2OS
- Type: toxicity, cell-based
- COND: human, 48 h, 1 µM, compound concentration 1 uM, replicate 1
Give Total Cell Count for every item shown.
Please give only the number in your answer, with no unit.

Task item: Consider the compound "C[C@@H]1C[C@H]2[C@@H]3CCC4=CC(=O)C=C[C@]4(C)[C@@]3(F)[C@@H](O)C[C@]2(C)[C@@]1(O)C(=O)CO" and give its recorded Total Cell Count.
Reply: 391

Task item: Consider the compound "COc1cc(C(=O)N(CCCc2ccccc2)Cc2ccc(CC(=O)O)cc2)cc(OC)c1C" and give its recorded Total Cell Count.
Reply: 408

Task item: Consider the compound "Cc1ccc(/C(=C\CN2CCCC2)c2ccccn2)cc1" and give its recorded Total Cell Count.
Reply: 398

Task item: Consider the compound "CSCC[C@H](NC=O)C(=O)N[C@@H](CC(C)C)C(=O)N[C@@H](Cc1ccccc1)C(=O)O" and give its recorded Total Cell Count.
Reply: 411

Task item: Consider the compound "CC(=O)NCCc1c(Cc2ccccc2)[nH]c2ccccc12" and give its recorded Total Cell Count.
Reply: 395

Task item: Consider the compound "c1cc(OCCCN2CCCCC2)ccc1CN1CCCCC1" and give its recorded Total Cell Count.
Reply: 400

====

Give Population Mitotic Cells (%) for every item shown.
- Tested on: HEK-293T
- ASSAY PROTOCOL: Multiplex assay against HEK293T
- Type: toxicity, cell-based
- COND: human, 48 h, 1 µM, compound concentration 1 uM, replicate 1
# output: bare number, implied unit %

Task item: Consider the molecule "CCCC(CCC)C(=O)O" and give its recorded Population Mitotic Cells (%).
Reply: 80

Task item: Consider the molecule "CC(C)(C)c1ccc(S(=O)(=O)Nc2ccc(Cl)cc2C(=O)c2cc[n+]([O-])cc2)cc1" and give its recorded Population Mitotic Cells (%).
Reply: 71

Task item: Consider the molecule Cc1ccc(C(C)(O)c2nc3ccccc3s2)c(C)c1 (configuration not stated) and give its recorded Population Mitotic Cells (%).
Reply: 82

Task item: Consider the molecule "O=C(NCCO)c1cccc(-c2cc(Nc3ccc(OC(F)(F)F)cc3)ncn2)c1" and give its recorded Population Mitotic Cells (%).
Reply: 82

Task item: Consider the molecule "CN(C)CCCc1cc(C(=O)Nc2ccc(-c3ccncc3)cc2)ccc1O.Cl.Cl" and give its recorded Population Mitotic Cells (%).
Reply: 76

Task item: Consider the molecule "Cc1ccc(/C(=C\CN2CCCC2)c2ccccn2)cc1" and give its recorded Population Mitotic Cells (%).
Reply: 83

Task item: Consider the molecule CCCN1CCC[C@@H]2Cc3n[nH]cc3C[C@H]21.Cl [QUINPIROLE HYDROCHLORIDE] and give its recorded Population Mitotic Cells (%).
Reply: 78

====

- Tested on: U2OS
- ASSAY PROTOCOL: Multiplex assay against U2OS
- Format: toxicity, cell-based
- COND: human, 48 h, 10 µM, compound concentration 10 uM, replicate 1
Population Pyknosed Nuclei (%) strictly under 8% means fulfilled; at 8% or over means not fulfilled.

Task item: Determine whether this molecule shows Population Pyknosed Nuclei (%) lower than 8% (ties excluded): "O=C1COc2nccc(-c3ccccc3F)c2CN1Cc1cc(C(F)(F)F)cc(C(F)(F)F)c1"
Reply: not fulfilled

Task item: Determine whether this molecule shows Population Pyknosed Nuclei (%) lower than 8% (ties excluded): O=C(NCC(=O)N1CC[C@H](N[C@H]2CC[C@@](O)(c3ccc(-c4ncccn4)cn3)CC2)C1)c1cccc(C(F)(F)F)c1 [PF-4136309]
Reply: not fulfilled

Task item: Determine whether this molecule shows Population Pyknosed Nuclei (%) lower than 8% (ties excluded): "Cc1nc2ccc(Oc3ccc(F)cc3)cc2c(=O)n1C[C@H]1CCCN(C(C)C)C1.Cl"
Reply: not fulfilled

Task item: Determine whether this molecule shows Population Pyknosed Nuclei (%) lower than 8% (ties excluded): "Cc1ccc(-c2ccc(F)cc2COc2ccc(CCC(=O)O)cc2)cc1"
Reply: fulfilled

Task item: Determine whether this molecule shows Population Pyknosed Nuclei (%) lower than 8% (ties excluded): Cc1ccc(/C(=C\CN2CCCC2)c2ccccn2)cc1 [TRIPROLIDINE]
Reply: not fulfilled

Task item: Determine whether this molecule shows Population Pyknosed Nuclei (%) lower than 8% (ties excluded): N[C@@]1(C(=O)O)CO[C@H]2[C@H](C(=O)O)[C@H]21 [LY-379268]
Reply: fulfilled

Task item: Determine whether this molecule shows Population Pyknosed Nuclei (%) lower than 8% (ties excluded): CCNC1(C(N)=O)CCN(c2ncnc3c2nc(-c2ccccc2Cl)n3-c2ccc(Cl)cc2)CC1 [OTENABANT]
Reply: not fulfilled

Task item: Determine whether this molecule shows Population Pyknosed Nuclei (%) lower than 8% (ties excluded): CC(C)(C)c1ccc(S(=O)(=O)Nc2ccc(Cl)cc2C(=O)c2cc[n+]([O-])cc2)cc1 [VERCIRNON]
Reply: fulfilled

====

- Tested on: HEK-293T
- ASSAY PROTOCOL: Multiplex assay against HEK293T
- Type: toxicity, cell-based
- COND: human, 24 h, 10 µM, compound concentration 10 uM, replicate 2
Give Population Normal (%) for every item shown.
# output: bare number, implied unit %

Task item: Consider the molecule "O=C(O)c1cc2ccccc2c(Cc2c(O)c(C(=O)O)cc3ccccc23)c1O" and give its recorded Population Normal (%).
Reply: 92

Task item: Consider the molecule "c1cc(OCCCN2CCCCC2)ccc1CN1CCCCC1" and give its recorded Population Normal (%).
Reply: 94

Task item: Consider the molecule "CC(=O)NCCc1c(Cc2ccccc2)[nH]c2ccccc12" and give its recorded Population Normal (%).
Reply: 88

Task item: Consider the molecule CSc1ccccc1N1CCN(CCCCCC(=O)NC2CCCc3ccccc32)CC1.Cl (stereo not drawn) and give its recorded Population Normal (%).
Reply: 79

Task item: Consider the molecule "Cc1ccc(-c2ccc(F)cc2COc2ccc(CCC(=O)O)cc2)cc1" and give its recorded Population Normal (%).
Reply: 96

Task item: Consider the molecule "Oc1c(CN2CCN(c3ccccn3)CC2)cc(Cl)c2cccnc12" and give its recorded Population Normal (%).
Reply: 92

Task item: Consider the molecule "CC1(COc2ccc3c(c2)ncn3-c2ccc3cccc(N4CCC(N)CC4)c3n2)COC1" and give its recorded Population Normal (%).
Reply: 36

Task item: Consider the molecule "N[C@@]1(C(=O)O)CO[C@H]2[C@H](C(=O)O)[C@H]21" and give its recorded Population Normal (%).
Reply: 91

====

- Test system: HEK-293T
- ASSAY PROTOCOL: Multiplex assay against HEK293T
- Format: toxicity, cell-based
- COND: human, 12 h, 10 µM, compound concentration 10 uM, replicate 2
RECORDED ENDPOINT: Population Apoptotic (%)
# output: bare number, implied unit %

Task item: Consider the compound C[C@H]1[C@H]2CC[C@H]3[C@@H]4CC=C5C[C@@H](N(C)C)CC[C@]5(C)[C@H]4CC[C@]23CN1C [CONESSINE] and give its recorded Population Apoptotic (%).
Reply: 59

Task item: Consider the compound "Cc1nc2ccc(Oc3ccc(F)cc3)cc2c(=O)n1C[C@H]1CCCN(C(C)C)C1.Cl" and give its recorded Population Apoptotic (%).
Reply: 61

Task item: Consider the compound "COc1c(C)cc(NC(=O)c2nn(Cc3ccc(F)cc3)c3c2CN(C(=O)c2ccc[nH]2)C[C@]3(C)C(N)=O)cc1C" and give its recorded Population Apoptotic (%).
Reply: 59

Task item: Consider the compound "CN(C)CCCc1cc(C(=O)Nc2ccc(-c3ccncc3)cc2)ccc1O.Cl.Cl" and give its recorded Population Apoptotic (%).
Reply: 60

Task item: Consider the compound C[C@@H]1C[C@H]2[C@@H]3CCC4=CC(=O)C=C[C@]4(C)[C@@]3(F)[C@@H](O)C[C@]2(C)[C@@]1(O)C(=O)CO [DEXAMETHASONE] and give its recorded Population Apoptotic (%).
Reply: 44

Task item: Consider the compound COc1cc(NC(=O)CCN2CCC(OC(=O)Nc3ccccc3-c3ccccc3)CC2)c(Cl)cc1CNC[C@H](O)c1ccc(O)c2[nH]c(=O)ccc12 [BATEFENTEROL] and give its recorded Population Apoptotic (%).
Reply: 52

Task item: Consider the compound "COc1cc(C(=O)N(CCCc2ccccc2)Cc2ccc(CC(=O)O)cc2)cc(OC)c1C" and give its recorded Population Apoptotic (%).
Reply: 47
